# testDetails: Encapsulation of hydrophobic compounds into milk fat globules (loading capacity, encapsulation efficiency)
# Format: physicochemical, bovine
# assayConditions: 150 μM added compound, 10% v/v ethanol, 30 min, room temperature
Lab note: cut-off is 40%. Strictly less in % Encapsulation efficiency is fulfilled. Exactly 40% or more is not fulfilled.

Query: I'd appreciate it if you could check whether C=C1CC[C@H](O)C/C1=C/C=C1\CCC[C@]2(C)[C@@H]([C@H](C)CCCC(C)C)CC[C@@H]12 has % Encapsulation efficiency smaller than 40%.
Response: not fulfilled

Query: I'd appreciate it if you could check whether CC(=O)OC/C=C(C)/C=C/C=C(C)/C=C/C1=C(C)CCCC1(C)C [Retinyl acetate] has % Encapsulation efficiency smaller than 40%.
Response: not fulfilled

Query: I'd appreciate it if you could check whether O.O=c1c(O)c(-c2ccc(O)c(O)c2)oc2cc(O)cc(O)c12 [Quercetin hydrate] has % Encapsulation efficiency smaller than 40%.
Response: not fulfilled

Query: I'd appreciate it if you could check whether C=CCc1ccc(O)c(OC)c1 has % Encapsulation efficiency smaller than 40%.
Response: not fulfilled

Query: I'd appreciate it if you could check whether O=c1c(O)c(-c2ccc(O)c(O)c2)oc2cc(O)ccc12 has % Encapsulation efficiency smaller than 40%.
Response: fulfilled
